- Tested on: Candida albicans
- procedureDetails: Antifungal activity against Candida albicans ATCC 44859 after 24 hrs by broth microdilution method
- Assay type: functional
- conditionsUsed: ATCC 44859, 24 h
resultType: IC80

[
  {
    "molecule": "O=[N+]([O-])c1cc(CSc2cccc[n+]2[O-])cc([N+](=O)[O-])c1",
    "reported": "> 500 µM"
  },
  {
    "molecule": "O=[N+]([O-])c1ccc(C[Se]c2nnnn2C2CCCCC2)c([N+](=O)[O-])c1",
    "reported": "15.6 µM"
  },
  {
    "molecule": "O=[N+]([O-])c1cc(CSc2nnnn2-c2ccc(Cl)c(Cl)c2)cc([N+](=O)[O-])c1",
    "reported": "> 125 µM"
  },
  {
    "molecule": "O=[N+]([O-])c1cc(C[Se]c2nnnn2C2CCCCC2)cc([N+](=O)[O-])c1",
    "reported": "> 500 µM"
  },
  {
    "molecule": "O=C(O)c1cccc(-n2nnnc2SCc2cc([N+](=O)[O-])cc([N+](=O)[O-])c2)c1",
    "reported": "> 500 µM"
  },
  {
    "molecule": "C[C@@H]1[C@H](O)[C@@H](C)/C=C/C=C/C=C/C=C/C=C/C=C/C=C/[C@H](O[C@@H]2O[C@H](C)[C@@H](O)[C@H](N)[C@@H]2O)C[C@@H]2O[C@](O)(C[C@@H](O)C[C@@H](O)[C@H](O)CC[C@@H](O)C[C@@H](O)CC(=O)O[C@H]1C)C[C@H](O)[C@H]2C(=O)O [AMPHOTERICIN B]",
    "reported": "0.54 µM"
  },
  {
    "molecule": "O=[N+]([O-])c1cc(C[Se]c2nnnn2Cc2ccccc2)cc([N+](=O)[O-])c1",
    "reported": "> 500 µM"
  },
  {
    "molecule": "OC(Cn1cncn1)(Cn1cncn1)c1ccc(F)cc1F [FLUCONAZOLE]",
    "reported": "0.82 µM"
  },
  {
    "molecule": "O=[N+]([O-])c1cc(CSc2nnnn2C2CCCCC2)cc([N+](=O)[O-])c1",
    "reported": "> 500 µM"
  },
  {
    "molecule": "O=[N+]([O-])c1cc(CSc2nnnn2Cc2ccccc2)cc([N+](=O)[O-])c1",
    "reported": "> 500 µM"
  }
]

* * *

- Tested on: Mycobacterium kansasii
- procedureDetails: Antimycobacterial activity against Mycobacterium kansasii CNCTC My 235/80 after 14 days by micromethod
- Assay type: functional
- conditionsUsed: CNCTC My 235/80, 336 h
Quick rule for you: MIC under 4 µM gets Y, anything else gets N.

[
  {
    "molecule": "O=[N+]([O-])c1cc(CS(=O)(=O)c2nnnn2C2CCCCC2)cc([N+](=O)[O-])c1",
    "groupLabel": "N"
  },
  {
    "molecule": "O=[N+]([O-])c1cc(COc2nnnn2-c2ccc(Cl)cc2)cc([N+](=O)[O-])c1",
    "groupLabel": "N"
  },
  {
    "molecule": "COc1cccc(-n2nnnc2SCc2cc([N+](=O)[O-])cc([N+](=O)[O-])c2)c1",
    "groupLabel": "N"
  },
  {
    "molecule": "O=[N+]([O-])c1cc(C[Se]c2nnnn2-c2ccccc2)cc([N+](=O)[O-])c1",
    "groupLabel": "N"
  },
  {
    "molecule": "COc1ccc(-n2nnnc2[Se]Cc2cc([N+](=O)[O-])cc([N+](=O)[O-])c2)cc1",
    "groupLabel": "Y"
  },
  {
    "molecule": "O=[N+]([O-])c1ccc(C[Se]c2nnnn2C2CCCCC2)c([N+](=O)[O-])c1",
    "groupLabel": "N"
  },
  {
    "molecule": "O=[N+]([O-])c1cc(CSc2nnnn2-c2ccc(Br)cc2)cc([N+](=O)[O-])c1",
    "groupLabel": "Y"
  },
  {
    "molecule": "CCCCCCn1nnnc1[Se]Cc1cc([N+](=O)[O-])cc([N+](=O)[O-])c1",
    "groupLabel": "Y"
  },
  {
    "molecule": "Nn1nnnc1SCc1cc([N+](=O)[O-])cc([N+](=O)[O-])c1",
    "groupLabel": "N"
  },
  {
    "molecule": "O=[N+]([O-])c1cc(CS(=O)(=O)c2nnnn2-c2ccccc2)cc([N+](=O)[O-])c1",
    "groupLabel": "N"
  },
  {
    "molecule": "CCCCCCCCCCCCCCCCSCc1cc([N+](=O)[O-])cc([N+](=O)[O-])c1",
    "groupLabel": "N"
  },
  {
    "molecule": "NNC(=O)c1ccncc1",
    "groupLabel": "N"
  },
  {
    "molecule": "COc1cc(-n2nnnc2SCc2cc([N+](=O)[O-])cc([N+](=O)[O-])c2)cc(OC)c1OC",
    "groupLabel": "N"
  },
  {
    "molecule": "O=[N+]([O-])c1ccc(-n2nnnc2SCc2ccccc2)cc1",
    "groupLabel": "N"
  }
]

* * *

- Test system: Aspergillus fumigatus
- procedureDetails: Antifungal activity against Aspergillus fumigatus 231 after 48 hrs by broth microdilution method
- Assay type: functional, organism-based
- conditionsUsed: Aspergillus fumigatus, 231, 48 h

[
  {
    "molecule": "O=[N+]([O-])c1cc(CSc2nnnn2-c2ccc(Cl)c(Cl)c2)cc([N+](=O)[O-])c1",
    "IC50": "> 125 µM"
  },
  {
    "molecule": "O=[N+]([O-])c1cc(C[Se]c2nnnn2C2CCCCC2)cc([N+](=O)[O-])c1",
    "IC50": "> 500 µM"
  },
  {
    "molecule": "O=[N+]([O-])c1ccc(C[Se]c2nnnn2C2CCCCC2)c([N+](=O)[O-])c1",
    "IC50": "> 500 µM"
  },
  {
    "molecule": "O=[N+]([O-])c1cc(CSc2cccc[n+]2[O-])cc([N+](=O)[O-])c1",
    "IC50": "> 500 µM"
  },
  {
    "molecule": "O=[N+]([O-])c1cc(C[Se]c2nnnn2Cc2ccccc2)cc([N+](=O)[O-])c1",
    "IC50": "> 500 µM"
  }
]

* * *

- Tested on: Mycobacterium kansasii
- procedureDetails: Antimycobacterial activity against Mycobacterium kansasii 6509/96 after 7 days by micromethod
- Format: functional
- conditionsUsed: 6509/96, 168 h

[
  {
    "compound": "O=[N+]([O-])c1cc(CSc2nnnn2-c2ccc(Br)cc2)cc([N+](=O)[O-])c1",
    "studyTarget": "Mycobacterium kansasii",
    "MIC / µM": 2
  },
  {
    "compound": "Cn1nnnc1SCc1cc([N+](=O)[O-])cc([N+](=O)[O-])c1",
    "studyTarget": "Mycobacterium kansasii",
    "MIC / µM": 16
  },
  {
    "compound": "COc1ccc(-n2nnnc2SCc2cc([N+](=O)[O-])cc([N+](=O)[O-])c2)cc1",
    "studyTarget": "Mycobacterium kansasii",
    "MIC / µM": 1
  },
  {
    "compound": "N#CSCc1cc([N+](=O)[O-])cc([N+](=O)[O-])c1",
    "studyTarget": "Mycobacterium kansasii",
    "MIC / µM": 4
  },
  {
    "compound": "O=[N+]([O-])c1cc(COc2nnnn2-c2ccccc2)cc([N+](=O)[O-])c1",
    "studyTarget": "Mycobacterium kansasii",
    "MIC / µM": 8
  },
  {
    "compound": "O=[N+]([O-])c1cc(CSc2nnnn2-c2cccc(F)c2)cc([N+](=O)[O-])c1",
    "studyTarget": "Mycobacterium kansasii",
    "MIC / µM": 4
  },
  {
    "compound": "O=[N+]([O-])c1ccc(-n2nnnc2SCc2ccccc2)cc1",
    "studyTarget": "Mycobacterium kansasii",
    "MIC / µM": 16
  },
  {
    "compound": "O=[N+]([O-])c1cc(C[S+]([O-])c2nnnn2C2CCCCC2)cc([N+](=O)[O-])c1 (stereo not given)",
    "studyTarget": "Mycobacterium kansasii",
    "MIC / µM": 4
  },
  {
    "compound": "COc1ccc(-n2nnnc2SCc2cc(N)cc(N)c2)cc1",
    "studyTarget": "Mycobacterium kansasii",
    "MIC / µM": 250
  },
  {
    "compound": "COc1ccccc1-n1nnnc1SCc1cc([N+](=O)[O-])cc([N+](=O)[O-])c1",
    "studyTarget": "Mycobacterium kansasii",
    "MIC / µM": 125
  }
]
